The listing below reports IC50 for compounds tested on Serine/threonine-protein kinase PLK3 (Homo sapiens, UniProt Q9H4B4).
Sequence (Q9H4B4 whole entry): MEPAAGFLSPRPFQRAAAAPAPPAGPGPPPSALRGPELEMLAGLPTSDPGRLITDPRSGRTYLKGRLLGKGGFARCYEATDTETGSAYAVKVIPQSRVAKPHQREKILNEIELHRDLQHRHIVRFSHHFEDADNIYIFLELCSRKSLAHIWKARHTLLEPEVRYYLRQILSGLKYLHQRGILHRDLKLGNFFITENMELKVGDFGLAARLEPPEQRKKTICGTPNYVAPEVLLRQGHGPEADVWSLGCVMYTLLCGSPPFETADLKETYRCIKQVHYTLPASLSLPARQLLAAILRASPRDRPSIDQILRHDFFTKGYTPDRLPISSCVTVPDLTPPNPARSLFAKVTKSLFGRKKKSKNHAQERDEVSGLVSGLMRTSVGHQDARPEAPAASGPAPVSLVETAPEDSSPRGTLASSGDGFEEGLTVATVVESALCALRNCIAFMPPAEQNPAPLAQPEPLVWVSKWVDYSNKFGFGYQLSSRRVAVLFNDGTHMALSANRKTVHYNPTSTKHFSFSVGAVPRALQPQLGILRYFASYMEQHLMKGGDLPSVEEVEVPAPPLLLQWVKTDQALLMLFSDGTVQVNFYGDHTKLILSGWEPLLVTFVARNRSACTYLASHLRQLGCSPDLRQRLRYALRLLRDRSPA
PROPERTY: IC50 (nM)

A. Cn1nc(C(N)=O)c2c1-c1nc(Nc3ccccc3OC(F)(F)F)ncc1CC2
B. Cn1nc(C(N)=O)c2c1-c1nc(Nc3cc(N4CCNCC4)ccc3OC(F)(F)F)ncc1CC2
Problem: Pick one, A or B : lowest reported IC50. Lab log: write the label of the selected item as the result.
Solution: A
(A: 32 nM, B: 1430 nM)

----------
System: MIA PaCa-2
Assay: Antiproliferative activity against human MIAPaCa2 cells after 72 hrs by CellTiter-Glo assay
Assay type: functional, cell-based
Conditions: MIA PaCa-2, 72 h
PROPERTY: pIC50
# log scale: pIC50 equals minus log10 of the concentration in mol/L

Problem: Endpoint output: pIC50 of "CN1CCN(c2ccc(OC(F)(F)F)c(Nc3ncc4c(n3)-c3c(c(C(N)=O)nn3C)CC4)c2)CC1" . Value?
Solution: 7.28

----------
# pIC50 per entry
Molecular target: Cyclin-dependent kinase 2/cyclin A (Homo sapiens)
Assay: Inhibition of CDK2/Cyclin A
pIC50: −log10 of the molar value.

C=Cn1nc(C(N)=O)c2c1-c1nc(Nc3cc(N4CCN(C)CC4)ccc3OC(F)(F)F)ncc1CC2 = < 5.00
CCN1CCN(c2ccc(OC(F)(F)F)c(Nc3ncc4c(n3)-c3c(c(C(N)=O)nn3C)CC4)c2)CC1 = < 5.00
Cn1nc(C(N)=O)c2c1-c1nc(Nc3cc(N4CCNCC4)ccc3OC(F)(F)F)ncc1CC2 = < 5.00

Problem: Entry under review: "CN1CCN(c2ccc(OC(F)(F)F)c(Nc3ncc4c(n3)-c3c(c(C(N)=O)nn3CCCl)CC4)c2)CC1" . Reported pIC50?
Solution: 5.70

----------
Target: Cyclin-dependent kinase 2/cyclin A (Homo sapiens, UniProt P24941)
Experiment: Inhibition of CDK2/Cyclin A
pIC50: −log10 of the molar value.
Reported pIC50 values for the following compounds.

Cn1nc(C(N)=O)c2c1-c1nc(Nc3cc(N4CC[N+](C)([O-])CC4)ccc3OC(F)(F)F)ncc1CC2 = < 5.00
Cn1nc(C(N)=O)c2c1-c1nc(Nc3cc(N4CCC(N5CCCC5)CC4)ccc3OC(F)(F)F)ncc1CC2 = < 5.00

Problem: Which pIC50 reading was recorded for the compound "COCCn1nc(C(N)=O)c2c1-c1nc(Nc3cc(N4CCN(C)CC4)ccc3OC(F)(F)F)ncc1CC2" ?
Solution: < 5.00
